Origin of the recorded values: patent US20260078159A1

Target: T1, human PD1 on cells (human, UniProt Q15116 25-288)
T1 construct: HEK 293T cells stably expressing the human PD1 gene (Crown Bioscience) in flow cytometry; also called HEK293-hPD1; PD1+ HEK293 cells
T1 sequence (Q15116 25-288 limits assumed): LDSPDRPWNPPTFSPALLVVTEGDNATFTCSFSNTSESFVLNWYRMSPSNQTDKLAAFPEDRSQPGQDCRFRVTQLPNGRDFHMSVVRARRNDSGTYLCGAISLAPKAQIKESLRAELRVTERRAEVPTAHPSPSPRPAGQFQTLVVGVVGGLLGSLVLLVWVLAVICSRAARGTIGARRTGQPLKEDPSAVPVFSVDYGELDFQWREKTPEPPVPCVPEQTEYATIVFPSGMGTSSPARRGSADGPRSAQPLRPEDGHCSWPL
Experiment: flow cytometry on PD1+ HEK293 cells, MFI
measured-endpoint: EC50 (pM)
I only need the number, in pM, no unit after it.

## Input Please look at this binder and report its EC50: P-1201 (antibody, human IgG1, kappa, V domains shown) VH: EVQLLESGGGLVQPGGSLRLSCAASGFTFTNYYMYWVRQAPGKGLEWVSGINPSNGGTNFADKFKGRFTLSTDSSKNTLYLQMNSLRAEDTAVYYCARRDYRFDMGFDYWGQGTLVTVSS VL: EIVLTQSPATLSLSPGERATLSCRASQGVSTSGYSYLHWYQQKPGQAPRLLIYLASYRESGVPARFSGSGSGTDFTLTISSLEPEDFAVYYCQHSRDLPLTFGGGTKVEIKR
## Output 159
